system: HCT-116 colon; assay: NCI tumour cell line growth inhibition, 48 h

Compound	Modifier	TGI (µM)
COc1ccc(OC)c(/C=C(/C#N)c2ccccc2)c1	>	100
BrCc1cccc(C[P+](c2ccccc2)(c2ccccc2)c2ccccc2)c1	>	100
CC1=C(/C=C/C(C)=C/C=C/C(C)=C/C(=O)OC2CC(n3cc(F)c(=O)[nH]c3=O)OC2CO)C(C)(C)CCC1 (stereo not given)	=	14.4
CC(=O)NNc1nc(-c2ccc([N+](=O)[O-])cc2)c(C#N)c(=O)n1C	=	94.2
CC(C)[Si]1(C(C)C)OCC2OC3(CO)C(Oc4nc(=O)ccn43)C2O[Si](C(C)C)(C(C)C)O1 (stereo not given)	=	24.7

###

system: UO-31 renal; experiment: NCI tumour cell line growth inhibition, 48 h

Molecule	Modifier	TGI [µM]
O=C1c2ccccc2C(=O)c2c1nc1ccccc1c2-c1cncc(-c2c3c(nc4ccccc24)C(=O)c2ccccc2C3=O)c1	=	31.8
CC(Oc1ccc(Cl)cc1Cl)C(=O)NN1C(=O)CSC1c1ccccc1 (stereo not given)	>	100
COC(=O)c1cc2c(s1)-c1nccc3c1c(nc1ccccc13)C2=O	>	100
C[C@]12CCC(=O)C=C1CC[C@@H]1C2CC[C@]2(C)Nc3[nH]ncc3CC12 (stereo not given in full)	>	100
COC(=O)/C=C\C(C#N)(C#N)N=Cc1cc(Br)cs1	=	5.01

###

test system: A498 renal; experiment: NCI tumour cell line growth inhibition, 48 h

Compound	System	Modifier	TGI, µM
N#Cc1c(-c2ccc(Cl)cc2)c(C#N)c(=O)n(NS(=O)(=O)c2ccccc2)c1O	A498 renal	=	70.1
Nc1n[nH]c(=O)c2c1c(I)cn2C1OC(CO)C(O)C1O (centres undefined)	A498 renal	>	100
BrCc1cccc(C[P+](c2ccccc2)(c2ccccc2)c2ccccc2)c1	A498 renal	>	100
Cc1ccc(Nc2oc(-c3ccccc3)nc2[P+](c2ccccc2)(c2ccccc2)c2ccccc2)cc1	A498 renal	=	2.36
COc1ccc(OC)c(/C=C(/C#N)c2ccccc2)c1	A498 renal	=	83.8
COC(=O)C1=C(O)c2ccc(Cl)cc2S(=O)(=O)N1C	A498 renal	>	100
C=COC(=O)N[C@H]1CCc2cc(OC)c(OC)c(OC)c2-c2ccc(SC)c(=O)cc21	A498 renal	=	0.395
CN(C)c1ccc(N=Nc2ccccn2)c(O)c1	A498 renal	=	19.1
CCCC(=O)N1CCN(c2ccc3c(c2)OC(C)O3)CC1 (centres undefined)	A498 renal	>	100
CS(=O)(=O)Nc1cc(-c2ccc3ncnc(Nc4c(Cl)ccc5c4OCO5)c3c2)cnc1Cl	A498 renal	=	0.127
CC(C)OC(=O)[C@H](C)NP(=O)(OC[C@H]1O[C@@H](n2ccc(=O)[nH]c2=O)[C@](C)(F)[C@@H]1O)Oc1ccccc1 (some centres undefined)	A498 renal	>	100
C=C1CC/C=C(\C)CCC[C@H](C)[C@@H](O)[C@@H]2OC(=O)C(=C)[C@@H]2C[C@H]1O	A498 renal	>	100
CN(C)c1ncnc2c1ncn2CCn1cnc2c(N(C)C)ncnc21	A498 renal	>	100
O=C(CSc1c2ccccc2nc2ccccc12)Nc1ccccc1-c1ccccc1NC(=O)CSc1c2ccccc2nc2ccccc12	A498 renal	>	93.4
COc1cc(/C=C\c2cc(OC)c(OC)c(OC)c2)cc(N/C=C\C(=O)c2cc(OC)c(OC)c(OC)c2)c1OC	A498 renal	=	7.89
O=C1c2cccc3cccc(c23)C(=O)N1CCCCCN1CCN(CCCCCOc2ccc(-c3nc4ccc(N5CCOCC5)cc4[nH]3)cc2)CC1	A498 renal	>	100
CCOC(=O)[C@H](C)OC(=O)[C@@](C)(NC(=O)c1ccccc1C(=O)OC)[C@@H]1NC=C(C(=O)OC)CS1	A498 renal	>	100
COC(C)(C)OCCN1CCN(CCN2C3=C(C=C(C(C)=O)C3)Sc3ccccc32)CC1	A498 renal	=	34
CCOC(=O)/C=C/c1ccc(C#Cc2ccccc2)cc1	A498 renal	>	100

The reported numbers originate from PubChem BioAssay (NCI).
